- Test system: T47D
- ASSAY_PROTOCOL: NCI tumour cell line growth inhibition, 48 h
The source made the active and inactive calls. Cut-off read from the data, not from the text of the source: active = GI50 up to about 1.1 µM and inactive = higher.
Parameter call: string, one of active, inactive

O=C(N/C=C1\C(=O)Oc2ccccc2C1=O)Oc1ccccc1    inactive
Cc1cc(-c2nc3cc(F)c(F)cc3s2)ccc1N    active

What outcome does the record of this test show for `C=C(C)C(=O)O[C@@H]1C/C(C)=C\[C@H](OC(C)=O)C[C@](C)(O)/C=C2/OC(=O)C(COC(C)=O)=C21` ?
active

Would you kindly repeat that for CC(=O)OC1COC(Nc2nc(N)n(C)c(=O)c2N=O)C(OC(C)=O)C1OC(C)=O (configuration not stated) ?
inactive

Would you kindly repeat that for `O=c1cc(N2CCCC2)[nH]c(=O)n1-c1cccc(Cl)c1` ?
inactive

Would you kindly repeat that for `COc1c(C)c(C/C=C(\C)CCCCO[Si](c2ccccc2)(c2ccccc2)C(C)(C)C)c(OC)c(OC)c1OC` ?
inactive

Would you kindly repeat that for CN1C/C(=C\c2cccs2)C2=NC(=S)NC(c3cccs3)C2C1 (configuration not stated) ?
inactive

Would you kindly repeat that for O=C1CCC2(CC1CC(Sc1ccccc1)Sc1ccccc1)OCCO2 (configuration not stated) ?
inactive

Would you kindly repeat that for `CC1=NC(=Cc2ccccc2O)C(=O)N1n1c(-c2ccccc2)nc2ccccc2c1=O` ?
inactive

Would you kindly repeat that for `O=C(CSc1nc(O)nc2[nH]cnc12)Nc1ccccc1` ?
inactive

Would you kindly repeat that for `CC1(C)CCC2=C(O1)c1ccccc1/C(=N/c1ccc([N+](=O)[O-])cc1)C2=O` ?
inactive

Would you kindly repeat that for `COC(=O)C1=C(C)N2[C@H](C(=O)O)CO[C@@]2(C)[C@H](C(=O)OC)[C@H]1c1cccc([N+](=O)[O-])c1` ?
inactive

Would you kindly repeat that for `Cc1cc(NC(=O)C(=O)Cc2nc3ccccc3s2)ccc1Cl` ?
inactive

Would you kindly repeat that for CC12CCC(Br)C(C)(C)C1CC=C1C(=O)OCC1O2 (configuration not stated) ?
inactive

Would you kindly repeat that for N#Cc1ccccc1NC(=O)C(O)C(O)C(O)C(O)C=O (configuration not stated) ?
inactive

Would you kindly repeat that for `O=C1Nc2ccc([N+](=O)[O-])cc2/C1=N/NC(=S)Nc1ccc([N+](=O)[O-])cc1` ?
inactive

Would you kindly repeat that for CCOC(=O)C1CC(O)C(=O)N1C (configuration not stated) ?
inactive

Would you kindly repeat that for `O=[N+]([O-])c1cc2c(c([N+](=O)[O-])c1)NCc1ccccc1O2` ?
inactive

Would you kindly repeat that for `O=c1[nH]/c(=C/c2ccc3c(c2)OCO3)c(=O)[nH]/c1=C/c1ccc2c(c1)OCO2` ?
inactive
